- system: 17β-HSD10 (Homo sapiens)
- Construct: Histev (histidine tag with TEV site) (N, cleaved yes); made in house; host or cells: E. coli BL21-CodonPlus
- Sequence (Q99714 whole entry): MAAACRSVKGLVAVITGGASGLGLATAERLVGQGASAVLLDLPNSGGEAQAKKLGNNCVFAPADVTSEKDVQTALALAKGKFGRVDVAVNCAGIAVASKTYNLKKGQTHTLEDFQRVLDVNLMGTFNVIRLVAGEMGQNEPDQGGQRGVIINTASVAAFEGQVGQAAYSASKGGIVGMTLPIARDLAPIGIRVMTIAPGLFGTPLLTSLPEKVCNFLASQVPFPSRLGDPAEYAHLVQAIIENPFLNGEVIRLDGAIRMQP
- measurement-notes: 17β-HSD10 (ABAD) enzyme inhibition assay, NADH oxidation read at 340 nm (primary screen and dose response)
- Assay type: biochemical
- test-conditions: recombinant 17βHSD10 enzyme assay, curve fit
- Protocol: Cell pellets of E. coli BL21-CodonPlus cells containing Histev-17β-HSD10 protein were re-suspended for 30 min, 4° C., in lysis buffer (20 mM NaH2PO4, 30 mM imidazole, 500 mM NaCl, 10% (v/v) glycerol, pH 7.5) with the addition of complete ethylenediaminetetraacetic acid (EDTA)-free protease inhibitor tablets (Roche), lysozyme (1 mg/mL), deoxyribonuclease (DNase) (20 μg/mL) and Triton X-100 (0.1% (v/v)). […]
measured-parameter: Hill Slope

Prompt: State its Hill Slope for this compound: CC(C)CN(C(=O)c1ccccc1F)c1cccc(N(C)CCO)c1
Completion: 0.95

Prompt: State its Hill Slope for this compound: COc1cccc(-c2ccccc2[C@@H]2CCCN2C(=O)c2sccc2C)c1OC
Completion: 1.1

Prompt: State its Hill Slope for this compound: Cc1ccsc1C(=O)N1CCC[C@@H]1c1ccccc1-c1cn[nH]c1
Completion: 1

Prompt: State its Hill Slope for this compound: COc1cccc(-c2ccccc2[C@@H]2CCCN2C(=O)c2[nH]ncc2Cl)c1 (single isomer, unassigned) [ESC1002757]
Completion: 0.89

Prompt: State its Hill Slope for this compound: CC(C)CN(C(=O)c1ccccc1F)c1cccc(N(C)Cc2ccccn2)c1
Completion: 0.98

Prompt: State its Hill Slope for this compound: CC(C)CN(C(=O)c1ccc(C(F)(F)F)cc1F)c1cccc(N(C)Cc2c[nH]cn2)c1
Completion: 0.99

Prompt: State its Hill Slope for this compound: Cc1n[nH]c(Cc2ccccc2)c1-c1ccccc1O
Completion: 1.1

Prompt: State its Hill Slope for this compound: CC(C)CN(C(=O)c1ccccc1F)c1cccc(N(C)Cc2cnc[nH]2)c1
Completion: 1

Prompt: State its Hill Slope for this compound: CCCn1c(C(N)=O)cc2cc(-c3cn[nH]c3)ccc21
Completion: 1.3

Prompt: State its Hill Slope for this compound: CC(C)N(C(=O)c1ccccc1F)c1cccc(N(C)Cc2cnc[nH]2)c1
Completion: 1

Prompt: State its Hill Slope for this compound: O=C(c1sccc1Cl)N1CCCC1c1ccccc1-c1cccc(O)c1 (racemic)
Completion: 1.1

Prompt: State its Hill Slope for this compound: O=C(c1sccc1Cl)N1CCC[C@H]1c1ccccc1-c1cc(O)ccc1F (single isomer, unassigned) [ESC1002842]
Completion: 1.1

Prompt: State its Hill Slope for this compound: Cc1ccsc1C(=O)N1CCC[C@H]1c1ccccc1-c1ccccc1Cl [ESC1002324]
Completion: 1

Prompt: State its Hill Slope for this compound: CC(C)CN(C(=O)c1ccccc1F)c1cccc(NCc2c[nH]cn2)c1
Completion: 0.94

Prompt: State its Hill Slope for this compound: CC(C)CN(C(=O)c1ccncc1)c1cccc(N(C)Cc2cnc[nH]2)c1
Completion: 0.8

Prompt: State its Hill Slope for this compound: COc1ccc(-c2ccccc2[C@H]2CCCN2C(=O)c2ccccc2F)cn1 (stereo in doubt)
Completion: 1.3

Prompt: State its Hill Slope for this compound: CC(C)CN(C(=O)Cc1ccccc1)c1cccc(N(C)Cc2cnc[nH]2)c1
Completion: 1

Prompt: State its Hill Slope for this compound: Cc1ccsc1C(=O)N1CCC[C@@H]1c1ccccc1-c1c[nH]nc1C
Completion: 1.1
